Molecular target: his-galectin-3 (Homo sapiens, UniProt P17931)
Construct: purchased Abcam
Sequence (P17931 whole entry): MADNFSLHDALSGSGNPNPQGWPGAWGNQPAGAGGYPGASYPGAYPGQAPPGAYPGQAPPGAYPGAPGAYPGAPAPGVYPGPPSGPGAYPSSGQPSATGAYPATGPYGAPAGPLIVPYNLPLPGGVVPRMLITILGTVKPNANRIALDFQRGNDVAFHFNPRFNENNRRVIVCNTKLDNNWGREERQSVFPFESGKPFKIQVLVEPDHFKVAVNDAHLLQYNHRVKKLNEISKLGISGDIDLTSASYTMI
Assay: TR-FRET assay (in vitro galectin-3 binding inhibitory activity test)
Settings: Table 2; compound at 20 μM; 60 nM his-galectin-3, 15 nM biotin-ASF; read-out: % Inhibitory activity (at 20 μM)
parameter: inhibition at 20 µM

Value lookup for inhibition at 20 µM; key = O=C(N[C@@H]1CCO[C@]12O[C@H](CO)[C@H](O)[C@H](n1cc(-c3cc(F)c(F)c(F)c3)nn1)[C@H]2O)c1ccnc2ccc(Br)cc12 > 75%

Also O=C(N[C@@H]1CCO[C@]12O[C@H](CO)[C@H](O)[C@H](n1cc(-c3cc(F)c(F)c(F)c3)nn1)[C@H]2O)c1cccc2ccc(Br)cc12 ? > 75%

Then CC1CO[C@@]2(C1)O[C@H](CO)[C@H](O)[C@H](n1cc(-c3cc(F)c(F)c(F)c3)nn1)[C@H]2OC(=O)c1ccccn1 (single isomer, unassigned) ? 50 to 75%

Same question for O=C(N[C@@H]1CCO[C@]12O[C@H](CO)[C@H](O)[C@H](n1cc(-c3cc(F)c(F)c(F)c3)nn1)[C@H]2O)c1cccc2ncc(Cl)cc12 please. > 75%

Now consider O=C(N[C@@H]1CCO[C@]12O[C@H](CO)[C@H](O)[C@H](n1cc(-c3cc(F)c(F)c(F)c3)nn1)[C@H]2O)c1cccc2cnccc12 . > 75%

Try this compound too: O=C(N[C@@H]1CCO[C@]12O[C@H](CO)[C@H](O)[C@H](n1cc(-c3cc(F)c(F)c(F)c3)nn1)[C@H]2O)c1ccc2ccccc2c1Br 50 to 75%

Same lookup for O=C(N[C@@H]1CCO[C@]12O[C@H](CO)[C@H](O)[C@H](n1cc(-c3cc(F)c(F)c(F)c3)nn1)[C@H]2O)c1ccc(Br)c2ncccc12 , please. 50 to 75%

Could you do the same for Cc1cc(C(=O)N[C@@H]2CCO[C@]23O[C@H](CO)[C@H](O)[C@H](n2cc(-c4cc(F)c(F)c(F)c4)nn2)[C@H]3O)c2cc(Br)ccc2n1 , please? > 75%
